# credit: patent US10167257B2

# measurement target: IDO (SKOV-3 cells) (Homo sapiens)
# Construct: This assay utilised cancer cells which expressed either TDO or IDO; host or cells: SKOV-3 ovary adenocarcinoma cells, IFNγ-induced
# Sequence (P14902 whole entry): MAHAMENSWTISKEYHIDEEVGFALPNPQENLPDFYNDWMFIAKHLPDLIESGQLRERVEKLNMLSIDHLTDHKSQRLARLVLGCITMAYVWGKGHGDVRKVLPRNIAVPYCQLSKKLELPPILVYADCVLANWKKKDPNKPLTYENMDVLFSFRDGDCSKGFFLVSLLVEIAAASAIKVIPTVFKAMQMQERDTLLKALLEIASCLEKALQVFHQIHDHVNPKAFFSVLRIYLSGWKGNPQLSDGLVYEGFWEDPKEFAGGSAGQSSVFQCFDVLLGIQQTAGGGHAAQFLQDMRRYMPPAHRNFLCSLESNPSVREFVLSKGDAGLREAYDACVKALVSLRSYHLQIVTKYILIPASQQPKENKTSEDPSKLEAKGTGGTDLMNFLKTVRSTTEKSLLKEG
# procedure text: IDO cell-based assay (SKOV-3, IFNγ-induced), kynurenine production
# setup conditions: SKOV-3 ovary adenocarcinoma cells, IFNγ 500 ng/ml, 500 μM L-Trp, 48 h, kynurenine by absorbance at 490 nm
metric name: IDO cellular assay (SKOV3) pIC50

1. CC(NC(=O)c1cc2cc(Cl)ccc2[nH]1)c1ccn(-c2ccccc2)n1 (stereo not shown); +++ (+++ = pIC50 ≥5.50)
2. Cc1c(C(=O)N[C@@H](C)c2ccccc2)[nH]c2ccc(F)cc12; + (+ = pIC50 4.50-<5.00)
3. C[C@@H](NC(=O)c1cc2cc(Cl)cc(F)c2[nH]1)c1ccccc1; +++ (+++ = pIC50 ≥5.50)
4. CCOc1ccc2[nH]c(C(=O)NC(C)c3cnn(C)c3)cc2c1 (stereo not shown); +++ (+++ = pIC50 ≥5.50)
5. O=C(NCc1cc2cc(F)ccc2[nH]1)c1ccccc1; + (+ = pIC50 4.50-<5.00)
6. CC(C)C(C)NC(=O)c1cc2cc(Cl)ccc2[nH]1 (stereo not shown); +++ (+++ = pIC50 ≥5.50)
7. O=C(NCc1ccc(F)c(Cl)c1)c1cc2cc(Cl)ccc2[nH]1; + (+ = pIC50 4.50-<5.00)
8. N#Cc1ccc2[nH]c(C(=O)NC3(c4ccc(F)cc4)COC3)cc2c1; +++ (+++ = pIC50 ≥5.50)
9. O=C(NCc1cccc(Cl)c1)c1cc2ccccc2[nH]1; + (+ = pIC50 4.50-<5.00)
10. O=C(NC1(c2ccccc2)CCCCC1)c1cc2cc(Cl)ccc2[nH]1; +++ (+++ = pIC50 ≥5.50)
11. C[C@@H](c1ccccc1)N(C)C(=O)c1cc2cc(F)ccc2[nH]1; + (+ = pIC50 4.50-<5.00)
12. COc1ccc2[nH]c(C(=O)NC3(c4ccccc4)COC3)cc2c1; +++ (+++ = pIC50 ≥5.50)
13. CC(NC(=O)c1cc2cc(Cl)ccc2[nH]1)c1ccc(F)cc1 (stereo not shown); +++ (+++ = pIC50 ≥5.50)
14. CC(C)Oc1ccc2[nH]c(C(=O)NC(C)c3cnn(C)c3)cc2c1 (stereo not shown); + (+ = pIC50 4.50-<5.00)
15. COc1cccc(-n2cc(C(C)NC(=O)c3cc4cc(Cl)ccc4[nH]3)cn2)c1 (stereo not shown); +++ (+++ = pIC50 ≥5.50)
16. C[C@@H](NC(=O)c1cc2c(F)cccc2[nH]1)c1ccccc1; +++ (+++ = pIC50 ≥5.50)
17. Cn1cc(C2(NC(=O)c3cc4ccc(C(F)F)cc4[nH]3)CC2)cn1; + (+ = pIC50 4.50-<5.00)
18. CCc1ccc2[nH]c(C(=O)NC3(c4ccccc4)CC3)cc2c1; +++ (+++ = pIC50 ≥5.50)
19. O=C(NC1(c2ccccc2)CC1)c1cc2cc(OC(F)(F)F)ccc2[nH]1; +++ (+++ = pIC50 ≥5.50)
20. CC(NC(=O)c1cc2ccccc2[nH]1)c1ccccc1 (stereo not shown); +++ (+++ = pIC50 ≥5.50)
21. CC(NC(=O)c1cc2cc(C#N)ccc2[nH]1)c1ccccc1 (stereo not shown); +++ (+++ = pIC50 ≥5.50)
22. O=C(NC1(c2ccc(Cl)cc2)CC1)c1cc2cc(Cl)ccc2[nH]1; +++ (+++ = pIC50 ≥5.50)
23. Cn1cc(C2(NC(=O)c3cc4cc(Cl)ccc4[nH]3)CCCC2)cn1; +++ (+++ = pIC50 ≥5.50)
24. C[C@@H](NC(=O)c1cc2ccc(C(F)F)cc2[nH]1)c1ccccc1; + (+ = pIC50 4.50-<5.00)
25. Cc1nc(C(C)NC(=O)c2cc3cc(C#N)ccc3[nH]2)no1 (stereo not shown); + (+ = pIC50 4.50-<5.00)
26. CC(NC(=O)c1cc2cc(Cl)ccc2[nH]1)c1ccc(C(=O)N2CCOCC2)cc1 (stereo not shown); +++ (+++ = pIC50 ≥5.50)
27. O=C(NC1(c2ccccc2)CC1)c1cc2cc(Cl)cnc2[nH]1; +++ (+++ = pIC50 ≥5.50)
28. CC(NC(=O)c1cc2cc(Cl)ccc2[nH]1)C1CCCCC1 (stereo not shown); +++ (+++ = pIC50 ≥5.50)
29. O=C(NC1CCCCC1O)c1cc2cc(Cl)ccc2[nH]1 (stereo not shown); + (+ = pIC50 4.50-<5.00)
30. C[C@@H](NC(=O)c1cc2cc(Cl)c(F)cc2[nH]1)c1ccccc1; +++ (+++ = pIC50 ≥5.50)
